System: EKVX NSCLC
EXPERIMENTAL_PROTOCOL: NCI tumour cell line growth inhibition, 48 h

>  <INPUT_SMILES>
O=C(Nc1ccc(Cl)cc1)c1cc(S(=O)(=O)Nc2nnc(-c3ccccc3)c(-c3ccccc3)n2)c(SCc2ccccc2)cc1Cl

>  <TGI>
> 63.8 µM

$$$$
>  <INPUT_SMILES>
CCCCCCCCCCCCn1[nH]c(C)c(C(=S)SCCCCCCCC)c1=O

>  <TGI>
> 100 µM

$$$$
>  <INPUT_SMILES>
Cn1c2ccccc2n2c3ccccc3c(=O)c(C#N)c12

>  <TGI>
> 100 µM

$$$$

###

// reported TGI per item
Tested on: IGROV1 ovarian
EXPERIMENTAL_PROTOCOL: NCI tumour cell line growth inhibition, 48 h

>  <COMPOUND>
CCCCCCCCCCCC(O)=C1C(=O)CC(O)CC1=O (stereo not drawn)

>  <TGI>
> 100 µM

$$$$
>  <COMPOUND>
Cc1ccc(CC(Cc2ccc(C)cc2C(=O)O)C(=O)O)cc1 (stereo not drawn)

>  <TGI>
> 100 µM

$$$$
>  <COMPOUND>
COc1cc(NCC2COc3c(ccc(OC)c3OC)C2=O)c([N+](=O)[O-])cc1OC (stereo not drawn)

>  <TGI>
> 100 µM

$$$$
>  <COMPOUND>
COc1ccc(CCNC(=O)CCc2ccccc2CO)cc1OC

>  <TGI>
> 100 µM

$$$$
>  <COMPOUND>
COc1ccc(C(=O)C(C(=O)C(=O)Nc2nccs2)c2ccc(OC)cc2)cc1 (stereo not drawn)

>  <TGI>
> 100 µM

$$$$
>  <COMPOUND>
CC(O)(CNS(=O)(=O)c1ccccc1)c1ccccc1 (stereo not drawn)

>  <TGI>
> 100 µM

$$$$
>  <COMPOUND>
O=C1/C(=C\c2ccc(F)cc2)CCOc2c1ccc1ccccc21

>  <TGI>
> 100 µM

$$$$
>  <COMPOUND>
Cn1c2ccccc2c2nc3ccccc3c(Cl)c21

>  <TGI>
> 100 µM

$$$$

###

Below, each entry is listed with its recorded TGI.
System: RPMI-8226 leukemia
EXPERIMENTAL_PROTOCOL: NCI tumour cell line growth inhibition, 48 h

>  <COMPOUND>
COc1ccc(CCNC(=O)CCc2ccccc2CO)cc1OC

>  <TGI>
> 100 µM

$$$$
>  <COMPOUND>
COc1cc(NCC2COc3c(ccc(OC)c3OC)C2=O)c([N+](=O)[O-])cc1OC (centres undefined)

>  <TGI>
> 100 µM

$$$$
>  <COMPOUND>
COc1cc(C2=NN(c3ccc(S(N)(=O)=O)cc3)C(c3ccc(Cl)cc3)C2)cc(OC)c1OC (centres undefined)

>  <TGI>
> 100 µM

$$$$
>  <COMPOUND>
COc1ccc(C(=O)C(C(=O)C(=O)Nc2nccs2)c2ccc(OC)cc2)cc1 (centres undefined)

>  <TGI>
> 100 µM

$$$$
>  <COMPOUND>
COc1ccc(/C=C(/C)[N+](=O)[O-])cc1

>  <TGI>
3.75 µM

$$$$
>  <COMPOUND>
C/C(N=Nc1nc2ccccc2[nH]1)=C1/C=CC=CN1O

>  <TGI>
> 100 µM

$$$$
>  <COMPOUND>
CC(=O)c1cc2c(c3ccsc13)-c1ccccc1CC2

>  <TGI>
75 µM

$$$$
>  <COMPOUND>
NC(=S)N/N=C\c1nccc2c(N)cccc12

>  <TGI>
> 82.8 µM

$$$$
>  <COMPOUND>
CC1(C)CCCOc2cccc(c2)OCCCC(C)(C)C1=O

>  <TGI>
> 100 µM

$$$$
>  <COMPOUND>
CC1CN=C(NS(=O)(=O)c2cc(C(=O)Nc3ccc(F)cc3)c(Cl)cc2S)NN1 (centres undefined)

>  <TGI>
> 100 µM

$$$$
>  <COMPOUND>
c1cc[c]([Sn]([S]c2cccc3cccnc23)([S]c2cccc3cccnc23)[c]2ccccc2)cc1

>  <TGI>
0.465 µM

$$$$
>  <COMPOUND>
O=C1/C(=C/c2ccccc2)CCc2ccccc21

>  <TGI>
9.42 µM

$$$$
>  <COMPOUND>
O=C(O)C1(Cc2ccc3c(c2)CCC3)Cc2ccccc2C1=O (centres undefined)

>  <TGI>
92.2 µM

$$$$
>  <COMPOUND>
Cc1ccc(NC(=O)c2[nH]c(SCCN(C)C)nc2-c2ccc(F)cc2)cc1C#Cc1cnc2cccnn12

>  <TGI>
6.05 µM

$$$$
>  <COMPOUND>
NC(Cc1ccnnc1)C(=O)O (centres undefined)

>  <TGI>
> 100 µM

$$$$
>  <COMPOUND>
O=C(NCCNCCNC(=O)C(F)(F)F)C(F)(F)F

>  <TGI>
> 100 µM

$$$$
>  <COMPOUND>
CCCCCCCCCCCC(=O)c1c(O)cccc1O

>  <TGI>
68.5 µM

$$$$
>  <COMPOUND>
C/C(=N\Nc1nc2ccccc2o1)c1cc(C)ncn1

>  <TGI>
> 100 µM

$$$$
>  <COMPOUND>
O=C(O)c1cscc1Cc1cccs1

>  <TGI>
> 100 µM

$$$$
